Data origin, for the record: patent US11512042B2

# experimental.protocol: % transmission spectrum of 0.1% solution (breakthrough, steepness)
# Type: physicochemical
# assay.conditions: value in nm where transmittance increases beyond 1%; 0.1% solution
# Description: FIG. 2 is a is a graphical representation of the % transmission of compounds 142 and 143 measured in a 2 mm cuvette as 0.1% solutions in methanol (142 is the left most trace); […]
outcome.measure: Breakthrough (1% T at 0.1%) (nm)
Enter your answer as a number in nm; do not include the unit.

Worked cases, answers included:
{"columns": ["compound", "outcome.measure", "reported.result"],
 "data": [
  ["CCOC(=O)C(=O)/C(=C/N1CCc2cc(C(=O)OC)ccc21)c1ccccc1", "Breakthrough (1% T at 0.1%)", 421],
  ["CCOC(=O)C(=O)/C(=C\\N(CC)c1ccccc1)c1ccccc1", "Breakthrough (1% T at 0.1%)", 383],
  ["CCCCCCC(=O)C1=CN(c2ccc(N3C=C(C(=O)CCCCCC)C(C)(C)CC3)cc2)CCC1(C)C [Compound 129, reference compound]", "Breakthrough (1% T at 0.1%)", 397],
  ["COC(=O)c1ccc2c(c1)CCN2/C=C(/C(=O)C(=O)N1CCc2ccccc21)c1ccccc1", "Breakthrough (1% T at 0.1%)", 417],
  ["COC(=O)c1ccc2c(c1)CCN2C=C(C(=O)C(C)(C)C)c1ccc(C(C)(C)C)cc1", "Breakthrough (1% T at 0.1%)", 401],
  ["COC(=O)c1ccc2c(c1)CCN2/C=C(/C(=O)C(=O)OC(C)(C)c1ccccc1)c1ccccc1", "Breakthrough (1% T at 0.1%)", 384]
]}

In the following, a different compound is considered.
(Q) Can you share its Breakthrough (1% T at 0.1%)? I mean this compound: CCN(/C=C(\C(=O)C(=O)N(C)C)c1ccccc1)c1ccccc1
(A) 378
